test system: MCF7; assay: NCI tumour cell line growth inhibition, 48 h
The source made the active and inactive calls. Cut-off read from the data, not from the text of the source: active = GI50 up to about 1.1 µM and inactive = higher.
recorded_endpoint: GI50

molecule: CC(C)(C)OC(=O)NC(CSSCC(NC(=O)OC(C)(C)C)C(=O)O)C(=O)O (stereo not given)
value_measured: > 100 µM (inactive)

molecule: OCC1=C[C@@](COCc2ccccc2)(OCc2ccccc2)[C@@H](OCc2ccccc2)[C@@H]1OCc1ccccc1
value_measured: 3.76 µM (inactive)

molecule: COc1ccc(Cc2cc(OC)c(OC)c(OC)c2)cc1O
value_measured: 0.0244 µM (active)

molecule: O=C1N/C(=N/N=C/C(O)C(O)C(O)C(O)CO)N/C1=C\c1cccs1 (stereo not given)
value_measured: > 100 µM (inactive)

molecule: COc1ccc2c(c1)CCC(CN1CCN(CCOC(c3ccc(F)cc3)c3ccc(F)cc3)CC1)C2O (stereo not given)
value_measured: 19.3 µM (inactive)

---

system: MDA-MB-231; assay: NCI tumour cell line growth inhibition, 48 h
Calls of active or inactive are those of the source. Rule as the data show it: active = GI50 up to about 1.1 µM and inactive = higher. Non-standard residues stand in square brackets, D forms with d. Residues, ends and D or L forms follow the SMILES beside them. *: point of attachment. hSer = N[CH](CCO)C(=O)O; Boc = CC(C)(C)OC(=O)*
Classes used: active, inactive

molecule: COC(CC1(/C=C/O[Si](C(C)C)(C(C)C)C(C)C)C(=O)N(COCC[Si](C)(C)C)c2ccccc21)OC (centres undefined)
tested_system: MDA-MB-231
group_label: inactive
//
molecule: CC(C)OP(=O)(c1ccccc1)c1ccc2c(c1)OCCOCCOCCOCCO2 (centres undefined)
tested_system: MDA-MB-231
group_label: inactive
//
molecule: Nc1ccc(S(=O)(=O)Nc2nccs2)cc1
tested_system: MDA-MB-231
group_label: inactive
//
molecule: COC(=O)C1C(O)C(C)C(O)C(C)/C=C\C=C(C)C(=O)Nc2c(C)c(OC(C)=O)c3c(c2O)C(=O)C(C)=C2OCOC(=C23)C(C)=CC(C)(O)C(O)C(C)C1O (centres undefined)
tested_system: MDA-MB-231
group_label: inactive
//
molecule: O=C1NC(=O)C(c2c[nH]c3ccccc23)=C1c1cnc[nH]1
tested_system: MDA-MB-231
group_label: inactive
//
molecule: C[C@]12CCC(=O)C=C1CC[C@@H]1[C@@H]2[C@@H](O)C[C@@]2(C)[C@H]1CC[C@]2(O)C(=O)COC(=O)C1CCCC1
tested_system: MDA-MB-231
group_label: inactive
//
molecule: CN(C)CCCOC(=O)C(c1ccccc1)C1(O)CCSCC1 (centres undefined)
tested_system: MDA-MB-231
group_label: inactive
//
molecule: O=C(CCC(=O)OCC1OC(O)(CC2OC(CO)C(O)C(O)C2O)C(O)C1O)OCc1ccccc1 (centres undefined)
tested_system: MDA-MB-231
group_label: inactive
//
molecule: COc1ccc2c(c1O)[C@@]13CCCC=C1[C@@H](C2)[N+](C)(C)CC3
tested_system: MDA-MB-231
group_label: inactive
//
molecule: CC(C)C1(O)C(=O)N(c2c(F)c(F)c(F)c(F)c2F)C(=S)N1CCSc1ccccc1 (centres undefined)
tested_system: MDA-MB-231
group_label: inactive
//
molecule: COc1cc2c(c(OC)c1OC)-c1ccc(OC)c(=O)cc1C(NC(=O)COc1ccccc1)CC2 (centres undefined)
tested_system: MDA-MB-231
group_label: active
//
molecule: Cc1ccc(S(=O)(=O)OCC(=O)O)cc1
tested_system: MDA-MB-231
group_label: inactive
//
molecule: COc1nc(C(=O)NNC(=O)c2nc(OC)c3ccccc3c2-c2ccccc2)c(-c2ccccc2)c2ccccc12
tested_system: MDA-MB-231
group_label: inactive
//
molecule: Cc1nc(OCc2ccccc2)c2ncn(CCO)c2n1
tested_system: MDA-MB-231
group_label: inactive
//
molecule: CCCCNC(=O)OCCN=C1c2ccccc2C(Br)C(Br)c2ccccc21 (centres undefined)
tested_system: MDA-MB-231
group_label: inactive
//
molecule: CCCCCCCCCCCCCCCCP(=O)([O-])OCC[N+](C)(C)C
tested_system: MDA-MB-231
group_label: inactive
//
molecule: C/C(=N\NC(=O)c1ccncc1)c1sc(-n2nc(-c3ccccc3)cc2-c2ccccc2)nc1C
tested_system: MDA-MB-231
group_label: inactive
//
molecule: COc1ccc(C(=O)/C=C/S/C(=N/C#N)SC)cc1
tested_system: MDA-MB-231
group_label: inactive
//
molecule: Nc1ccc(-c2nc3cc(F)ccc3s2)cc1
tested_system: MDA-MB-231
group_label: inactive
//
molecule: Nc1c(OCC(=O)O)ccc2cc(S(=O)(=O)O)ccc12
tested_system: MDA-MB-231
group_label: inactive
//
molecule: COC(=O)C1OC2(CCCC3CC32)O[C@H]1C(=O)OC (some centres undefined)
tested_system: MDA-MB-231
group_label: inactive
//
molecule: Cc1ccc(C)n1-c1ccccc1C1C=Cn2c3c1c(=O)c(OC(C)C)c(OC(C)C)c-3n[nH]c2=O (centres undefined)
tested_system: MDA-MB-231
group_label: inactive
//
molecule: C=C1CC[C@](C)(O)[C@@]2(C)CC[C@H]3C(=C(C)C)C(=O)C[C@]3(C)C[C@H]12
tested_system: MDA-MB-231
group_label: inactive
//
molecule: O=c1oc2c(ccc3c(O)cccc32)c2c1CCCC2
tested_system: MDA-MB-231
group_label: inactive
//
molecule: COc1ccc2c(-c3ccc(O)cc3)c(Oc3ccc(Cl)cc3)c(=O)oc2c1
tested_system: MDA-MB-231
group_label: inactive
//
molecule: O=C1/C(=C/c2ccc(Cl)cc2)NC(=S)N1CN1CCOCC1
tested_system: MDA-MB-231
group_label: inactive
//
molecule: Cc1ccc2nc(NC(=O)/C(Cc3nc4ccc(Cl)cc4nc3O)=N\NC(C)(C)C)sc2c1
tested_system: MDA-MB-231
group_label: inactive
//
molecule: COc1ccc(/C=C2/SC(c3ccccc3)N(NC(=O)CCCCCCCCC(=O)NN3C(=O)/C(=C\c4ccc(OC)c(OC)c4)SC3c3ccccc3)C2=O)cc1OC (centres undefined)
tested_system: MDA-MB-231
group_label: inactive
//
molecule: O=C1C(Nc2ccccc2)=CC2=NCCc3n[nH]c1c32
tested_system: MDA-MB-231
group_label: inactive
//
molecule: CC1(c2ccc(Cl)cc2)C=C(c2ccc(Cl)cc2)C(C#N)=C(C(C#N)C#N)N1.CNC (centres undefined)
tested_system: MDA-MB-231
group_label: inactive
//
molecule: N=C(N)SCc1nc(-c2ccc(Cl)cc2)no1
tested_system: MDA-MB-231
group_label: inactive
//
molecule: C/C(=N\NC(=O)N/N=C(\C)c1ccccn1)c1ccccn1
tested_system: MDA-MB-231
group_label: active
//
molecule: CNC(=O)CNC(=O)N(C[C@@H]1CCCN1C(=O)[C@H](CC(C)C)NC(=O)OC(C)(C)C)C(C)C
tested_system: MDA-MB-231
group_label: inactive
//
molecule: COc1cccc(C(=O)C#Cc2cnc(OC)nc2OC)c1
tested_system: MDA-MB-231
group_label: inactive
//
molecule: COCCC(NC(=O)C(CC(C)C)NC(=O)OC(C)(C)C)C(N)=O (stereo not drawn) (Boc-Leu-[hSer](Me)-NH2; configuration not given here)
tested_system: MDA-MB-231
group_label: inactive
//
molecule: [N-]=[N+]=NC1(c2ccccc2)C(=O)c2cccc3c4ccccc4n(c23)C1=O (centres undefined)
tested_system: MDA-MB-231
group_label: inactive
//
molecule: Cc1nc(C)c(C(=O)NNC(=O)Cc2ccccc2)cc1C(=O)NNC(=O)Cc1ccccc1
tested_system: MDA-MB-231
group_label: inactive
//
molecule: Cc1ccc(C2=NOC(=O)[C@@H]3CCCC[C@@H]23)cc1
tested_system: MDA-MB-231
group_label: inactive
//
molecule: CC(C)C(=O)Nc1cc(C(F)(F)F)ccc1[N+](=O)[O-]
tested_system: MDA-MB-231
group_label: inactive

---

Each item that follows carries a reported GI50.
system: SF-295; test: NCI tumour cell line growth inhibition, 48 h
Calls of active or inactive are those of the source. Rule as the data show it: active = GI50 up to about 1.1 µM and inactive = higher.

molecule: Cc1c(N2C(=O)/C(=C/c3ccc(Cl)cc3)N=C2c2ccccc2)c(=O)n(-c2ccccc2)n1C
GI50: 35.7 µM (inactive)

molecule: Cc1ccc(C2=NOC(=O)[C@@H]3CCCC[C@@H]23)cc1
GI50: > 100 µM (inactive)

molecule: COc1cc2c(cc1OC)-c1c3c(cc4c1[C@@H](C2)N(C)CC4)OCO3
GI50: 1.64 µM (inactive)

molecule: CC(=O)OC1/C(=C/c2ccc([N+](=O)[O-])cc2)C[C@H]2[C@@H]3CC=C4C[C@@H](OC(C)=O)CC[C@]4(C)[C@H]3CC[C@]12C (some centres undefined)
GI50: > 73.6 µM (inactive)

---

test system: NCI-H460; assay: NCI tumour cell line growth inhibition, 48 h
Calls of active or inactive are those of the source. Cut-off read from the data, not from the text of the source: active = GI50 up to about 1.1 µM and inactive = higher.

compound: O=C1CCC2(c3ccc(Cl)cc3)Nc3ncncc3N12 (stereo unspecified)
GI50: > 10 µM (inactive)

compound: O=C1c2cccc3cccc(c23)C(=O)N1O
GI50: 29.2 µM (inactive)

compound: C=CCCCCC1CCC2CCC(CCCCC=C)N12 (stereo unspecified)
GI50: 12.4 µM (inactive)

compound: CC1(C)CCC2=C(O1)/C(=N\Nc1ccccc1)c1ccccc1C2=O
GI50: 23.2 µM (inactive)

compound: CCOP(=O)(CC1OC(CO)C(O)C1O)OCC (stereo unspecified)
GI50: > 100 µM (inactive)

compound: O=[N+]([O-])c1cccc(/N=N/c2c(O)c(S(=O)(=O)O)cc3cc(S(=O)(=O)O)ccc23)c1
GI50: > 100 µM (inactive)

compound: CCCCCCCCCCCCCCCCP(=O)([O-])OCC[N+](C)(C)C
GI50: 5.75 µM (inactive)

compound: COc1ccc(/C=C2\CC3C4CC=C5C[C@@H](O)CC[C@]5(C)C4CC[C@]3(C)C2=O)cc1OC (stereo partly specified)
GI50: 17.3 µM (inactive)

compound: S=C(N/N=C/c1ccccn1)N1CCCCCC1
GI50: < 0.01 µM (active)

compound: COc1cc(CC2CC(c3ccc4c(c3)OCO4)OC2=O)cc(OC)c1OC (stereo unspecified)
GI50: > 100 µM (inactive)

compound: COC(=O)CCc1cccnc1/C=N/O
GI50: 27.4 µM (inactive)
